These data points were gathered from ChEMBL document CHEMBL2150885.

target: Antithrombin-III (Bos taurus); assay: Inhibition of bovine antithrombin-3 at 1 x 10^-3 M
Active and inactive are the calls of the source. The rule behind the calls is not given here.
OBSERVATION TYPE: inhibition

inhibition of O=S(=O)([O-])OCc1ccccc1O[C@@H]1O[C@H](COS(=O)(=O)[O-])[C@@H](OS(=O)(=O)[O-])[C@H](OS(=O)(=O)[O-])[C@H]1OS(=O)(=O)[O-].[Na+].[Na+].[Na+].[Na+].[Na+] [SALICIN PERSULFATE] on Antithrombin-III (Bos taurus)?
inactive

inhibition of `O=C(O)c1cc(OS(=O)(=O)[O-])c(OS(=O)(=O)[O-])c(OS(=O)(=O)[O-])c1.[Na+].[Na+].[Na+]` on Antithrombin-III (Bos taurus)?
inactive

inhibition of `Cc1cc(=O)oc2cc(O[C@@H]3O[C@H](COS(=O)(=O)[O-])[C@@H](OS(=O)(=O)[O-])[C@H](OS(=O)(=O)[O-])[C@H]3OS(=O)(=O)[O-])ccc12.[Na+].[Na+].[Na+].[Na+]` on Antithrombin-III (Bos taurus)?
inactive

---

assay: Metabolic stability of the compound in human plasma assessed as compound remaining after 3 hrs by IP-RP-HPLC analysis; format: ADME, cell-free; settings: read-out: Stability
OBSERVATION TYPE: remaining at 3 h (%)
One number for each entry, in %.

Item `O=S(=O)([O-])OC[C@H]1O[C@@H](Oc2cc(/C=C/c3ccc(OS(=O)(=O)[O-])cc3)cc(OS(=O)(=O)[O-])c2)[C@H](OS(=O)(=O)[O-])[C@@H](OS(=O)(=O)[O-])[C@@H]1OS(=O)(=O)[O-].[Na+].[Na+].[Na+].[Na+].[Na+].[Na+]` has what recorded remaining at 3 h?
95

---

tested on: Platelet; experiment: Antiplatelet activity against arachidonic acid-induced platelet aggregation in human blood at 6.25 x 10^-4 M measured for 6 mins by multiplate electrical impedance aggregometry; assay type: functional, cell-based
OBSERVATION TYPE: AUC (AU.min)
One number for each entry, in AU.min.

Below are worked cases with known answers.
AUC of `COc1ccc([C@@H]2CC(=O)c3c(O)cc(O[C@@H]4O[C@H](CO[C@@H]5O[C@@H](C)[C@H](OS(=O)(=O)[O-])[C@@H](OS(=O)(=O)[O-])[C@H]5OS(=O)(=O)[O-])[C@@H](OS(=O)(=O)[O-])[C@H](OS(=O)(=O)[O-])[C@H]4OS(=O)(=O)[O-])cc3O2)cc1O.[Na+].[Na+].[Na+].[Na+].[Na+].[Na+]` on Platelet?
150

AUC of O=c1ccc2cc(O[C@@H]3O[C@H](COS(=O)(=O)[O-])[C@@H](OS(=O)(=O)[O-])[C@H](OS(=O)(=O)[O-])[C@H]3OS(=O)(=O)[O-])c(OS(=O)(=O)[O-])cc2o1.[Na+].[Na+].[Na+].[Na+].[Na+] [ESCULIN PERSULFATE] on Platelet?
980

AUC of `O=S(=O)([O-])OC[C@H]1O[C@@H](Oc2cc(/C=C/c3ccc(OS(=O)(=O)[O-])cc3)cc(OS(=O)(=O)[O-])c2)[C@H](OS(=O)(=O)[O-])[C@@H](OS(=O)(=O)[O-])[C@@H]1OS(=O)(=O)[O-].[Na+].[Na+].[Na+].[Na+].[Na+].[Na+]` on Platelet?
400

More entries:
AUC of O=C1O[C@H]([C@H](COS(=O)(=O)[O-])OS(=O)(=O)[O-])C(OS(=O)(=O)[O-])=C1OS(=O)(=O)[O-].[Na+].[Na+].[Na+].[Na+] [ASCORBIC ACID PERSULFATE] on Platelet?
905
